# System: Nucleic Acid
# protocol-description: Thermal denaturation in alternating poly(dA-dT)poly(dA-dT) homopolymer (AT)
# Type: nucleic-acid assay

{"columns": ["test-smiles", "subject-of-test", "Tm"],
 "data": [
  ["N=C(N)c1ccc(-c2cc3ccc(C(=N)N)cc3[nH]2)cc1", "Nucleic Acid", "40.5 °C"],
  ["N=C(N)c1ccc2[nH]c(CCCCCc3nc4cc(C(=N)N)ccc4[nH]3)nc2c1", "Nucleic Acid", "18.3 °C"],
  ["c1cc2[nH]c(Cc3nc4cc(C5=NCCN5)ccc4[nH]3)nc2cc1C1=NCCN1", "Nucleic Acid", "10.7 °C"],
  ["c1cc2[nH]c(CCc3nc4cc(C5=NCCCN5)ccc4[nH]3)nc2cc1C1=NCCCN1", "Nucleic Acid", "39.5 °C"],
  ["N=C(N)c1ccc2[nH]c(/C=C/c3nc4cc(C(=N)N)ccc4[nH]3)nc2c1", "Nucleic Acid", "42.4 °C"],
  ["c1c[nH]c(-c2ccc(-c3cc4ccc(-c5ncc[nH]5)cc4[nH]3)cc2)n1", "Nucleic Acid", "42.7 °C"],
  ["N=C(N)c1ccc2c(ccn2Cc2ccc(Cn3ccc4cc(C(=N)N)ccc43)cc2)c1", "Nucleic Acid", "11.9 °C"],
  ["N=C(N)c1ccc2c(ccn2CCCn2ccc3cc(C(=N)N)ccc32)c1", "Nucleic Acid", "20.3 °C"],
  ["N=C(N)c1ccc2[nH]c(-c3cccc(-c4nc5cc(C(=N)N)ccc5[nH]4)c3)nc2c1", "Nucleic Acid", "23.9 °C"],
  ["N=C(N)c1ccc(OCCCCCOc2ccc(C(=N)N)cc2)cc1", "Nucleic Acid", "20.2 °C"]
]}

* * *

# System: Nucleic Acid
# protocol-description: Ratio between poly-dAdT and poly-dGdC binding
# Format: nucleic-acid assay
recorded-endpoint: Ratio

{"columns": ["test-smiles", "endpoint-result"],
 "data": [
  ["N=C(N)c1ccc2[nH]c(-c3cccc(-c4nc5cc(C(=N)N)ccc5[nH]4)c3)nc2c1", 4],
  ["c1c[nH]c(-c2ccc(-c3cc4ccc(-c5ncc[nH]5)cc4[nH]3)cc2)n1", 5],
  ["N=C(N)c1ccc2[nH]c(CCCCCCCCc3nc4cc(C(=N)N)ccc4[nH]3)nc2c1", 7],
  ["N=C(N)c1ccc2[nH]c(CCc3nc4cc(C(=N)N)ccc4[nH]3)nc2c1", 4],
  ["N=C(N)c1ccc2c(ccn2CCCn2ccc3cc(C(=N)N)ccc32)c1", 3.1]
]}

* * *

# Tested on: Calf thymus DNA
# protocol-description: Thermal denaturation in sonicated calf thymus DNA (CT DNA)
# Format: nucleic-acid assay
# protocol-conditions: Bos taurus
Below, each entry is listed alongside its reported Tm.

{"columns": ["test-smiles", "result-units", "Tm"],
 "data": [
  ["N=C(N)c1ccc2[nH]c(CCCc3nc4cc(C(=N)N)ccc4[nH]3)nc2c1", "°C", 10.6],
  ["Cn1cc(NC(=O)c2cc(NC(=O)CNC(=N)N)cn2C)cc1C(=O)NCCC(=N)N", "°C", 19],
  ["N=C(N)c1ccc2[nH]c(CCCCCCCCc3nc4cc(C(=N)N)ccc4[nH]3)nc2c1", "°C", 10.2],
  ["c1ccc2[nH]c(CCc3nc4ccccc4[nH]3)nc2c1", "°C", 4.3],
  ["N=C(N)c1ccc(OCCCCCOc2ccc(C(=N)N)cc2)cc1", "°C", 10.7],
  ["c1c[nH]c(-c2ccc(-c3cc4ccc(-c5ncc[nH]5)cc4[nH]3)cc2)n1", "°C", 22.4],
  ["C/C(=C(/C)c1nc2cc(C(=N)N)ccc2[nH]1)c1nc2cc(C(=N)N)ccc2[nH]1", "°C", 14.1],
  ["CC(C)NC(=N)c1ccc2[nH]c(-c3ccc(-c4nc5cc(C(=N)NC(C)C)ccc5[nH]4)cc3)nc2c1", "°C", 22.3],
  ["N=C(N)c1ccc2[nH]c(CCCCc3nc4cc(C(=N)N)ccc4[nH]3)nc2c1", "°C", 15.9],
  ["OC/C=N\\c1ccc2[nH]c(CCc3nc4cc(/N=C/CO)ccc4[nH]3)nc2c1", "°C", 2]
]}
